biological target: Cyclophilin A (Homo sapiens, UniProt P62937); construct: made in house; assay: AlphaLISA inhibition of binding of biotinylated Cyclosporin A to FLAG tagged Cyclophilin A; conditions: AlphaLISA signal; test concentration not given
Sequence (P62937 whole entry, species assumed): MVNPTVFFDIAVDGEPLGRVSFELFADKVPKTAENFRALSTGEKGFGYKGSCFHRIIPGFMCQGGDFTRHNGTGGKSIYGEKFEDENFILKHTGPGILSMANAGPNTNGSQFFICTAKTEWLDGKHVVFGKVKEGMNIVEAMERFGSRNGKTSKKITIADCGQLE
Where a SMILES comes first, the peptide text is derived from it. [ ]: non-standard residue; d: D form. MeBmt = C/C=C/C[C@@H](C)[C@@H](O)[C@H](NC)C(=O)O; NMeL = CN[C@@H](CC(C)C)C(=O)O; NMeNva = CCC[C@H](NC)C(=O)O; NMeV = CN[C@H](C(=O)O)C(C)C; Abu = CC[C@H](N)C(=O)O; Sar = CNCC(=O)O
Entries and their % signal
Give just the numeric value; % need not be written.

Guide cases for % signal, answers given:
>  <compound>
C/C=C/C[C@@H](C)[C@@H](O)[C@H]1C(=O)N[C@@H](CC)C(=O)N(C)CC(=O)N(C)[C@@H](CCC)C(=O)N[C@@H](C(C)C)C(=O)N(C)[C@@H](CC(C)C)C(=O)N[C@@H](CC)C(=O)N[C@H](C)C(=O)N(C)[C@@H](CC(C)C)C(=O)N(C)[C@@H](CC(C)C)C(=O)N(C)[C@@H](C(C)C)C(=O)N1C [Compound C102] (cyclo([Abu][Sar][NMeNva]V[NMeL][Abu][dA][NMeL][NMeL][NMeV][MeBmt]))

>  <% signal, %>
0.70

$$$$
>  <compound>
C/C=C/C[C@@H](C)[C@@H](O)[C@H]1C(=O)N[C@@H](CC)C(=O)N(C)CC(=O)N(C)[C@@H](C(C)C)C(=O)N[C@@H](CC(C)C)C(=O)N(C)[C@@H](CC(C)C)C(=O)N[C@@H](CC(C)C)C(=O)N[C@H](C)C(=O)N(C)[C@@H](CC(C)C)C(=O)N(C)[C@@H](CC(C)C)C(=O)N(C)[C@@H](C(C)C)C(=O)N1C [Compound C65] (cyclo([MeBmt][Abu][Sar][NMeV]L[NMeL]L[dA][NMeL][NMeL][NMeV]))

>  <% signal, %>
0.27

$$$$

In the following, a different compound is considered.
Noted for C/C=C/C[C@@H](C)[C@@H](O)[C@H]1C(=O)N[C@@H](CC)C(=O)N(C)CC(=O)N(C)[C@@H](CCCC)C(=O)N[C@@H](C(C)C)C(=O)N(C)[C@@H](CC(C)C)C(=O)N[C@@H](CC(C)C)C(=O)N[C@H](C)C(=O)N(C)[C@@H](CC(C)C)C(=O)N(C)[C@@H](CC(C)C)C(=O)N(C)[C@@H](C(C)C)C(=O)N1C [Compound C56] : its % signal reads 2.44

----------
molecular target: Cyclophilin A (Homo sapiens); construct: made in house; experiment: AlphaLISA inhibition of binding of biotinylated Cyclosporin A to FLAG tagged Cyclophilin A; conditions: test concentration not given
Where a SMILES comes first, the peptide text is derived from it. [ ]: non-standard residue; d: D form. MeBmt = C/C=C/C[C@@H](C)[C@@H](O)[C@H](NC)C(=O)O; NMeT = CN[C@H](C(=O)O)[C@@H](C)O; NMeL = CN[C@@H](CC(C)C)C(=O)O; NMeV = CN[C@H](C(=O)O)C(C)C; Abu = CC[C@H](N)C(=O)O; Sar = CNCC(=O)O
Entries and their % inhibition of CsA binding to Cyclophilin A
Give just the numeric value; % need not be written.

Guide cases for % inhibition of CsA binding to Cyclophilin A, answers given:
>  <molecule>
C/C=C/C[C@@H](C)[C@@H](O)[C@H]1C(=O)N[C@@H](CC)C(=O)N(C)CC(=O)N(C)[C@@H](C(C)C)C(=O)N[C@@H](C(C)C)C(=O)N(C)[C@@H](CC(C)C)C(=O)N[C@@H](CC)C(=O)N[C@H](C)C(=O)N(C)[C@@H](CC(C)C)C(=O)N(C)[C@@H](CC(C)C)C(=O)N(C)[C@@H](C(C)C)C(=O)N1C [Compound C101] (cyclo([Abu][Sar][NMeV]V[NMeL][Abu][dA][NMeL][NMeL][NMeV][MeBmt]))

>  <assay.system>
Cyclophilin A (Homo sapiens)

>  <quantitative.result>
99.85

$$$$
>  <molecule>
C/C=C/C[C@@H](C)[C@@H](O)[C@H]1C(=O)N[C@@H](CC)C(=O)N(C)CC(=O)N(C)[C@@H](CCCC)C(=O)N[C@@H](C(C)C)C(=O)N(C)[C@@H](CC(C)C)C(=O)N[C@@H](CC(C)C)C(=O)N[C@H](C)C(=O)N(C)[C@@H](CC(C)C)C(=O)N(C)[C@@H](CC(C)C)C(=O)N(C)[C@@H](C(C)C)C(=O)N1C

>  <assay.system>
Cyclophilin A (Homo sapiens)

>  <quantitative.result>
97.56

$$$$

In the following, a different molecule is considered.
Noted for C/C=C/C[C@@H](C)[C@@H](O)[C@H]1C(=O)N[C@@H](CC)C(=O)N(C)CC(=O)N(C)[C@@H]([C@@H](C)O)C(=O)N[C@@H](C(C)C)C(=O)N(C)CC(=O)N[C@@H](C)C(=O)N[C@H](C)C(=O)N(C)[C@@H](CC(C)C)C(=O)N(C)[C@@H](CC(C)C)C(=O)N(C)[C@@H](C(C)C)C(=O)N1C [Compound C31] (cyclo([MeBmt][Abu][Sar][NMeT]V[Sar]A[dA][NMeL][NMeL][NMeV])) : its % inhibition of CsA binding to Cyclophilin A reads 100.03

----------
Target: Cyclophilin A (Homo sapiens, UniProt P62937)
Construct: made in house
Experiment: AlphaLISA inhibition of binding of biotinylated Cyclosporin A to FLAG tagged Cyclophilin A
Settings: test concentration not given
Protocol: The binding of compounds of the invention to Cyclophilin A can be determined using the following protocol. […] Add 20 uL of 6 nM Biotinylated CsA working stock to each well of the 96-well plate. […] Protect plate from light until reading on Biotek Synergy2 Plate Reader; Alphalisa 96-well protocol (680 excitation/615 emission).
Where a SMILES comes first, the peptide text is derived from it. [ ]: non-standard residue; d: D form. MeBmt = C/C=C/C[C@@H](C)[C@@H](O)[C@H](NC)C(=O)O; NMeY = CN[C@@H](Cc1ccc(O)cc1)C(=O)O; NMeL = CN[C@@H](CC(C)C)C(=O)O; Tle = CC(C)(C)[C@H](N)C(=O)O; NMeV = CN[C@H](C(=O)O)C(C)C; NMeA = CN[C@@H](C)C(=O)O; Abu = CC[C@H](N)C(=O)O; Sar = CNCC(=O)O
assay.metric: % inhibition of CsA binding to Cyclophilin A (%)
Give just the numeric value; % need not be written.

Guide cases for % inhibition of CsA binding to Cyclophilin A, answers given:
>  <compound>
C/C=C/C[C@@H](C)[C@@H](O)[C@H]1C(=O)N[C@@H](CC)C(=O)N(C)CC(=O)N(C)[C@@H](Cc2ccc(O)cc2)C(=O)N[C@@H](C(C)(C)C)C(=O)N(C)[C@@H](C)C(=O)N[C@@H](CC(C)C)C(=O)N[C@H](C)C(=O)N(C)[C@@H](CC(C)C)C(=O)N(C)[C@@H](CC(C)C)C(=O)N(C)[C@@H](C(C)C)C(=O)N1C [Compound C76] (cyclo([MeBmt][Abu][Sar][NMeY][Tle][NMeA]L[dA][NMeL][NMeL][NMeV]))

>  <quantitative.result>
94.91

$$$$
>  <compound>
C/C=C/C[C@@H](C)[C@@H](O)[C@H]1C(=O)N[C@@H](CC)C(=O)N(C)CC(=O)N(C)[C@@H](CCCC)C(=O)N[C@@H](C(C)C)C(=O)N(C)[C@@H](CC(C)C)C(=O)N[C@@H](C)C(=O)N[C@H](C)C(=O)N(C)[C@@H](CC(C)C)C(=O)N(C)[C@@H](CC(C)C)C(=O)N(C)[C@@H](C(C)C)C(=O)N1C [Compound C43]

>  <quantitative.result>
99.71

$$$$

In the following, a different compound is considered.
Noted for C/C=C/C[C@@H](C)[C@@H](O)[C@H]1C(=O)N[C@@H](CC)C(=O)N(C)CC(=O)N(C)[C@@H](Cc2ccc(O)cc2)C(=O)N[C@@H](C(C)C)C(=O)N(C)[C@@H](CC(C)C)C(=O)N[C@@H](C)C(=O)N[C@H](C)C(=O)N(C)[C@@H](CC(C)C)C(=O)N(C)[C@@H](CC(C)C)C(=O)N(C)[C@@H](C(C)C)C(=O)N1C [Compound C39] : its % inhibition of CsA binding to Cyclophilin A reads 96.22

----------
Here's what we have: IC50 numbers for FKBP12 (Homo sapiens, UniProt P62942).
assay.metric: IC50 (nM)

>  <compound>
CCC(Cc1ccccc1)C1C=CCC=CCC(C)C(O)C(C)C2CCC(C)C(O)(CC(=O)N3CCCCC3C(=O)O1)O2 (centres unmarked)

>  <IC50 [nM]>
355

$$$$
>  <compound>
COC1C(O)CCC(CC(C)C2CCCC=CCC(C)=CCC3OC(O)(C(=O)C(=O)N4CCCCC4C(=O)O2)C(C)CC3C)C1O (centres unmarked)

>  <IC50 [nM]>
0.3

$$$$
>  <compound>
CC[C@H](Cc1ccccc1)[C@@H]1/C=C/C/C=C/C[C@@H](C)[C@H](O)[C@@H](C)[C@@H]2CC[C@@H](C)C(=O)C(O)(O2)C(=O)N2CCCC[C@H]2C(=O)O1

>  <IC50 [nM]>
1.5

$$$$

I. CC1=CC2=CC(O)C(C=C2)OC(=O)C2CCCCN2C(=O)C(=O)C2(O)OC(CCC2C)C(C)C(O)C=CC(C)CCC(O)C(C)=CC(C)C1 (centres unmarked)
II. CC[C@H](Cc1ccccc1)[C@@H]1CCCCCC[C@@H](C)[C@H](O)[C@@H](C)[C@@H]2CC[C@@H](C)C(=O)C(O)(O2)C(=O)N2CCCC[C@H]2C(=O)O1
Asked: Given I and given II , which shows the smaller recorded IC50? Give the label under which the chosen entry appears.
Given back: II

src = patent US20200199102A1
